measured-on: VIM-1 (Pseudomonas aeruginosa)
protocol-notes: Enzyme activity: determination of IC50, fluorescence assay with CCF2-FA substrate (VIM-1)
experimental-conditions: 30 pM enzyme, 1.25 μM CCF2-FA, 2 hours at 25° C.; read-out: VIM1 IC50
pIC50: −log10 of the molar value.
measurement-label: pIC50

INSERT INTO results (structure_notation, result_value) VALUES
  ('NC[C@@H](O)CNS(=O)(=O)c1ccc(N2CC[C@@H](CO)n3ccnc32)c(-c2nn[nH]n2)c1S(N)(=O)=O', 8.79),
  ('NS(=O)(=O)c1c(S(=O)(=O)N[C@@H]2CCNC2)ccc(N2CCCn3ccnc32)c1-c1nnn[nH]1', 9.41),
  ('NC[C@H](CO)NS(=O)(=O)c1ccc(N2CCCn3ccnc32)c(-c2nnn[nH]2)c1S(N)(=O)=O', 9.00),
  ('NCCNS(=O)(=O)c1ccc(N2CCCn3ccnc32)c(-c2nn[nH]n2)c1S(N)(=O)=O', 9.22),
  ('NS(=O)(=O)c1c(S(=O)(=O)N[C@@H]2CCNC2)ccc(N2CCCn3ncnc32)c1-c1nnn[nH]1', 9.70),
  ('NS(=O)(=O)c1c(S(=O)(=O)N[C@@H]2CCNC2)ccc(N2Cc3cccnc3C2)c1-c1nnn[nH]1', 9.23),
  ('NS(=O)(=O)c1c(S(=O)(=O)N[C@@H]2CCNC2)ccc(N2CCn3ncnc3C2)c1-c1nn[nH]n1', 9.54),
  ('NC[C@@H](O)CNS(=O)(=O)c1ccc(N2CC[C@H](CO)n3ccnc32)c(-c2nn[nH]n2)c1S(N)(=O)=O', 9.57),
  ('NS(=O)(=O)c1c(S(=O)(=O)N[C@@H]2CCNC2)ccc(N2CCc3ncccc32)c1-c1nnn[nH]1', 9.60),
  ('NS(=O)(=O)c1c(S(=O)(=O)N[C@@H]2CCNC2)ccc(N2CCn3nc(C(F)(F)F)nc3C2)c1-c1nn[nH]n1', 9.46),
  ('NC[C@H](O)CNS(=O)(=O)c1ccc(N2CCCn3ccnc32)c(-c2nnn[nH]2)c1S(N)(=O)=O', 9.12),
  ('NS(=O)(=O)c1c(S(=O)(=O)N[C@@H]2CCNC2)ccc(N2CCCc3ccncc32)c1-c1nnn[nH]1', 9.66),
  ('NS(=O)(=O)c1c(S(=O)(=O)N[C@@H]2CCNC2)ccc(N2CCc3ccncc32)c1-c1nnn[nH]1', 9.59),
  ('C[C@H](CN)NS(=O)(=O)c1ccc(N2CCCn3ccnc32)c(-c2nnn[nH]2)c1S(N)(=O)=O', 9.66),
  ('NS(=O)(=O)c1c(S(=O)(=O)N[C@@H]2CCNC2)ccc(N2CCCn3cnnc32)c1-c1nn[nH]n1', 9.62),
  ('NS(=O)(=O)c1c(S(=O)(=O)N[C@@H]2CCNC2)ccc(N2CCc3[nH]ncc3C2)c1-c1nnn[nH]1', 9.60),
  ('NC[C@@H](O)CNS(=O)(=O)c1ccc(N2CCc3nc(N)[nH]c3C2)c(-c2nn[nH]n2)c1S(N)(=O)=O', 7.65),
  ('NC[C@@H](O)CNS(=O)(=O)c1ccc(N2CCn3ccnc32)c(-c2nnn[nH]2)c1S(N)(=O)=O', 8.22),
  ('CNC(=O)c1nsc2c1CCN(c1ccc(S(=O)(=O)N[C@@H]3CCNC3)c(S(N)(=O)=O)c1-c1nnn[nH]1)C2', 9.82),
  ('NS(=O)(=O)c1c(S(=O)(=O)N[C@@H]2CCNC2)ccc(N2CCc3[nH]cnc3C2)c1-c1nnn[nH]1', 9.23),
  ('Nc1nc2c(s1)CN(c1ccc(S(=O)(=O)N[C@@H]3CCNC3)c(S(N)(=O)=O)c1-c1nnn[nH]1)CC2', 8.08),
  ('Cc1cc2c(c(C)n1)CCN2c1ccc(S(=O)(=O)N[C@@H]2CCNC2)c(S(N)(=O)=O)c1-c1nnn[nH]1', 9.85),
  ('NC[C@@H](O)CNS(=O)(=O)c1ccc(N2CCCn3ccnc32)c(-c2nnn[nH]2)c1S(N)(=O)=O', 9.42),
  ('NC[C@@H](O)CNS(=O)(=O)c1ccc(-n2ccnc2)c(-c2nn[nH]n2)c1S(N)(=O)=O', 8.98),
  ('NS(=O)(=O)c1c(S(=O)(=O)N[C@@H]2CCNC2)ccc(N2CCc3[nH]nnc3C2)c1-c1nnn[nH]1', 8.76),
  ('NS(=O)(=O)c1c(S(=O)(=O)N[C@@H]2CCNC2)ccc(N2CCCn3nccc32)c1-c1nn[nH]n1', 9.89),
  ('NS(=O)(=O)c1c(S(=O)(=O)N[C@@H]2CCNC2)ccc(N2CCCc3ccc(CCO)nc32)c1-c1nnn[nH]1', 8.24),
  ('NS(=O)(=O)c1c(S(=O)(=O)N[C@@H]2CCNC2)ccc(N2CCn3cncc3C2)c1-c1nn[nH]n1', 9.80);
